Assay: Liver microsomal metabolic stability, human liver microsomes (HLM)
Details: human, liver microsomes
half-life at 1 μM by entry:

COMPOUND: COc1ncnc(C2CC2)c1-c1cc2n(n1)CC(C)C(=O)N2Cc1ccc(-c2nc(C(F)(F)F)cn2C)cc1 (stereo not drawn)
half-life at 1 μM: > 25 min

COMPOUND: CC(C)n1ncc(Cl)c1-c1cc2n(n1)CCC(=O)N2Cc1ccc(-c2ncccc2N(C)C)cc1
half-life at 1 μM: < 25 min

COMPOUND: CCn1cc(C(F)(F)F)nc1-c1ccc([C@H](C)N2C(=O)CCn3nc(-c4c(Cl)cnn4C(C)C)nc32)cc1F
half-life at 1 μM: < 25 min

COMPOUND: CCn1cc(C(F)(F)F)nc1-c1ccc(NC2CCCn3nc(-c4c(Cl)cnn4C(C)C)cc32)cc1C#N (stereo not drawn)
half-life at 1 μM: > 25 min

COMPOUND: CC(C)n1ncc(Cl)c1-c1cc2n(n1)CC(O)C(=O)N2Cc1ccc(-c2nc(C(F)(F)F)cn2C)cc1 (stereo not drawn)
half-life at 1 μM: > 25 min

COMPOUND: CCn1cc(C(F)(F)F)nc1-c1ccc([C@H](C)n2c(=O)ccn3nc(-c4c(OC)ncnc4C4CC4)cc23)cc1
half-life at 1 μM: < 25 min

COMPOUND: CC(C)n1ncc(Cl)c1-c1cc2n(n1)CCCN2Cc1ccc(-c2nc(C(F)(F)F)cn2C)c(F)c1
half-life at 1 μM: < 25 min

COMPOUND: CCn1cc(C(F)(F)F)nc1-c1ccc(NC2CCCn3nc(-c4c(OC(F)F)ncnc4C4CC4)cc32)cc1 (stereo not drawn)
half-life at 1 μM: > 25 min

COMPOUND: CCn1cc(C(F)(F)F)nc1-c1ccc(N(CCO)C2CCCn3nc(-c4c(Cl)cnn4C(C)C)cc32)cc1F (stereo not drawn)
half-life at 1 μM: < 25 min

* * *

Tested on: Ub-PCNA levels in the nucleus of ES2 cells (USP1 activity)
Assay: ES2 Ub-PCNA immunofluorescence (IF) assay
Assay type: cell-based
Conditions: Homo sapiens, ES-2; ES2 cells, 3 hours, Ub-PCNA immunofluorescence; read-out: USP1 IC50 (Ub-PCNA)
READOUT KIND: IC50

MOLECULE: CCn1cc(C(F)(F)F)nc1-c1ccc(NC2CCCn3nc(-c4c(OC)ncnc4C4CC4)cc32)cc1 (stereo not shown) [Example 240]
VALUE REPORTED: < 100 nM

MOLECULE: Cc1cnn(C(C)C)c1-c1cc2n(n1)CCCN2Cc1ccc(-c2nc(C(F)(F)F)cn2C(C)C)cc1 [Example 54]
VALUE REPORTED: < 100 nM

MOLECULE: COc1ncnc(C2CC2)c1-c1cc2n(n1)CCCC2Nc1ccc(-c2nc(C(F)(F)F)cn2C(C)CF)cc1 (stereo not shown) [Example 248]
VALUE REPORTED: < 100 nM

MOLECULE: CCn1cc(C(F)(F)F)nc1-c1ccc([C@@H](C)N2C(=O)CCn3nc(-c4c(Cl)cnn4C(C)C)cc32)cn1 [Example 139]
VALUE REPORTED: 100 to 500 nM

* * *

Experiment: ADME solubility determination in PBS at pH 2.0 and pH 7.4
Type: physicochemical
Details: phosphate buffered saline, 25 °C, pH 2, aqueous buffer, thermodynamic from solid, PBS pH 2.0, 25° C., read-out: Solubility at pH 2.0
solubility at 24 h by entry:
READOUT KIND: solubility at 24 h

COMPOUND: CC(C)n1ncc(Cl)c1-c1cc2n(n1)CCCN2Cc1ccc(-c2nc(C(F)(F)F)cn2C)c(F)c1
VALUE REPORTED: < 10 µM
--
COMPOUND: CC(C)n1ncc(Cl)c1-c1cc2n(n1)CCC(=O)N2Cc1ccc(-c2ncccc2N(C)C)cc1
VALUE REPORTED: ≥ 10 µM
--
COMPOUND: COc1ncnc(C2CC2)c1-c1nc2n(n1)CCC(=O)N2[C@H](C)c1ccc(-c2nc(C(F)(F)F)cn2C2CC2)cc1
VALUE REPORTED: ≥ 10 µM
--
COMPOUND: Cn1cc(C(F)(F)F)nc1-c1ccc(CN2C(=O)CCn3nc(-c4c(Cl)cnn4C4CCC4)cc32)cc1F
VALUE REPORTED: < 10 µM
--
COMPOUND: CCn1cc(C(F)(F)F)nc1-c1ccc(Cn2c(=O)ccn3nc(-c4c(Cl)cnn4C(C)C)nc23)cc1F
VALUE REPORTED: < 10 µM
--
COMPOUND: COc1ncnc(C2CC2)c1-c1nc2n(n1)CCC(=O)N2[C@H](C)c1ccc(-c2nc(C(F)(F)F)cn2C)c(F)c1
VALUE REPORTED: ≥ 10 µM
--
COMPOUND: CC1CCn2nc(-c3c(Cl)cnn3C(C)C)cc2N1Cc1ccc(-c2nc(C(F)(F)F)cn2C(C)C)c(F)c1 (stereo not shown)
VALUE REPORTED: < 10 µM
--
COMPOUND: CCn1cc(C(F)(F)F)nc1-c1ccc(NC2CCCn3nc(-c4c(Cl)cnn4C(C)C)cc32)cc1 (stereo not shown)
VALUE REPORTED: < 10 µM
--
COMPOUND: CC(C)n1ncc(Cl)c1-c1cc2n(n1)CCC(=O)N2Cc1ccc(-c2nc(C(F)(F)F)cn2C)cc1
VALUE REPORTED: < 10 µM
--
COMPOUND: CCn1cc(C(F)(F)F)nc1-c1ccc(CN2C(=O)CCn3nc(-c4c(OC(F)F)ncnc4C4CC4)nc32)cc1
VALUE REPORTED: < 10 µM
--
COMPOUND: COc1ncnc(C2CC2)c1-c1cc2n(n1)CCC(C)N2Cc1ccc(-c2nc(C(F)(F)F)cn2C)cc1 (racemic)
VALUE REPORTED: ≥ 10 µM
--
COMPOUND: Cc1cnn(C(C)C)c1-c1nn2c(c1Cl)N(Cc1ccc(-c3nc(C(F)(F)F)cn3C)cc1)CCC2
VALUE REPORTED: < 10 µM
--
COMPOUND: COc1ncnc(C2CC2)c1-c1nc2n(Cc3ccc(-c4nc(C(F)(F)F)cn4C(C)C)c(F)c3OC)c(=O)ccn2n1
VALUE REPORTED: < 10 µM
--
COMPOUND: CCn1cc(C(F)(F)F)nc1-c1ccc(CN2C(=O)CCn3nc(-c4c(OC)ncnc4C4CC4)nc32)cc1F
VALUE REPORTED: < 10 µM
--
COMPOUND: CCn1cc(C(F)(F)F)nc1-c1ccc([C@@H](C)N2C(=O)CCn3nc(-c4c(OC(F)F)ncnc4C4CC4)nc32)cc1
VALUE REPORTED: ≥ 10 µM
--
COMPOUND: COc1c(CN2C(=O)CCn3nc(-c4c(OC(F)F)ncnc4C4CC4)nc32)ccc(-c2nc(C(F)(F)F)cn2C(C)C)c1F
VALUE REPORTED: < 10 µM
--
COMPOUND: CCn1cc(C(F)(F)F)nc1-c1ccc(N[C@H]2CCCn3nc(-c4c(Cl)cnn4C(C)C)cc32)cc1 (single isomer, unassigned)
VALUE REPORTED: < 10 µM
--
COMPOUND: CCn1cc(C(F)(F)F)nc1-c1ccc(CN2C(=O)C(C)Cn3nc(-c4c(OC)ncnc4C4CC4)nc32)cc1F (stereo not shown)
VALUE REPORTED: ≥ 10 µM
--
COMPOUND: Cc1cnn(C(C)C)c1-c1cc2n(n1)CCCN2Cc1ccc(-n2nc(C(F)(F)F)cc2C)c(F)c1
VALUE REPORTED: < 10 µM
--
COMPOUND: CCn1cc(C(F)(F)F)nc1-c1ccc(CN2C(=O)CCn3nc(-c4c(Cl)cnn4C(C)C)c(C#N)c32)cc1
VALUE REPORTED: < 10 µM
--
COMPOUND: Cc1cnn(C(C)C)c1-c1cc2n(n1)CCCN2Cc1ccc(-c2nc(C(F)(F)F)cn2C(C)C)cc1
VALUE REPORTED: ≥ 10 µM
--
COMPOUND: CCn1cc(C(F)(F)F)nc1-c1ccc(Cn2c(=O)ccn3nc(-c4c(OC)ncnc4C4CC4)cc23)cc1
VALUE REPORTED: ≥ 10 µM
